The reported numbers originate from ChEMBL document CHEMBL5724696.

Readings of autophagy induction for the listed compounds
test system: U2OS; test: Here: values are normalized to the negative (DMSO; defined as 0% autophagy induction) and positive (250nM Torin1; mTOR inhibitor; defined as maximal inducer of autophagy = 100%) control compounds and represented as % of autophagy induction. […] The impact of autophagy induction on cells is complex and depends on the affected target. As such, the magnitude of a phenotype may not be equally mirrored in the %-value of autophagy induction and vice versa. The dynamics of the induction may indicate the mode of activation: e.g. activation via phosphorylation or a signaling cascade may occur fast, while activation via transcription factors may take considerably longer. […] Of note, treatment concentrations may be sub-optimal for specific compounds, leading to false negative annotations.; type: functional, Homo sapiens; details: Compound Concentration 10 uM, Timepoint 36 hours, Culturing Media DMEM, 1 % Penicillin/Streptomycin, 10% Fetal bovin serum Add-On: No, Screening Media Control DMEM, Screening Media Samples DMEM
measure_name: autophagy induction (%)

| compound | target_under_test | measure_name | result |
| --- | --- | --- | --- |
| N[C@H](C(=O)O)c1ccc(C(=O)O)c(C(=O)O)c1 | U2OS | autophagy induction | -2.853 |
| C[C@@H](NCCc1ccc(O)cc1)[C@@H](O)c1ccc(O)cc1.Cl (relative stereo) | U2OS | autophagy induction | -21.0427 |
| CCC[C@H](Oc1cc(C)c(-n2cc(C(F)(F)F)cn2)c(C)c1)c1ccc(C(=O)NCCC(=O)O)cc1 [PF-06291874] | U2OS | autophagy induction | -0.5015 |
| CCc1ccc(OCc2ccccc2C(=O)Nc2ccc3nc(C)cc(N)c3c2)cc1.Cl | U2OS | autophagy induction | 154.332 |
| COc1ccc(S(=O)(=O)N2c3ccc(Cl)cc3[C@](O)(c3ccccc3Cl)[C@@H]2C(=O)N2CCC[C@H]2C(N)=O)cc1OC [RELCOVAPTAN] | U2OS | autophagy induction | -5.479 |
| FC(F)(F)c1cccc(-c2noc(-c3cc(-c4ccccc4)c(C(F)(F)F)s3)n2)c1 | U2OS | autophagy induction | -3.849 |
| O=C1N/C(=N/c2ccccc2F)S/C1=C\c1ccc(C(=O)O)cc1 | U2OS | autophagy induction | 3.146 |
| Cc1cc(C)cc(C(=O)N(C)[C@H](Cc2ccc(-c3ccccc3)cc2)C(=O)N[C@@H](Cc2c[nH]c3ccccc23)C(=O)O)c1 | U2OS | autophagy induction | 13.7232 |

---

Readings of ER-phagy suppression for the listed molecules
test system: U2OS; test: Here: values are normalized to the positive (DMSO; basel flux = defined as 100% suppression) and negative (250nM Torin1; mTOR inhibitor; maximal inducer of autophagy defined as 0% suppression) control compounds and represented as % of ER-phagy suppression. […] The impact of autophagy induction on cells is complex and depends on the affected target. […] Of note, treatment concentrations may be sub-optimal for specific compounds, leading to false negative annotations.; assay type: functional, Homo sapiens; conditions: Compound Concentration 1 uM, Timepoint 60 hours, Culturing Media DMEM, 1 % Penicillin/Streptomycin, 10% Fetal bovin serum Add-On: blasticidin, Screening Media Control DMEM, 10% Fetal bovin serum Add-On: 1 µg/ml Doxycyclin, Screening Media Samples DMEM, 10% Fetal bovin serum Add-On: 1 µg/ml Doxycyclin 250nM Torin1
measure_name: ER-phagy suppression (%)

| smiles_text | target_under_test | unit_descriptor | result |
| --- | --- | --- | --- |
| O=C(NCc1cccc(O)c1)Nc1nc(-c2ccncc2)cs1 | U2OS | % | 45.9293 |
| CN([C@@H](Cc1ccc(OS(=O)(=O)c2cccc3cnccc23)cc1)C(=O)N1CCN(c2ccccc2)CC1)S(=O)(=O)c1cccc2cnccc12 | U2OS | % | -4.142 |
| CCCCNc1ncc(-c2ccc(CN3CCOCC3)cn2)c(N[C@H]2CC[C@H](O)CC2)n1 | U2OS | % | 12.8118 |
| CCOc1cn(-c2ccc(F)cc2C)nc1C(=O)Nc1ccc(Oc2ccnc3cc(OC)c(OC)cc23)c(F)c1 | U2OS | % | 1.882 |
| O=C(O)c1ccc2c3c1cccc3c(=O)n1c3ccccc3nc21 | U2OS | % | -29.8702 |
| Cl.NC(=O)c1cnc(N[C@@H]2CCCC[C@@H]2N)nc1Nc1cccc(-n2nccn2)c1 | U2OS | % | 31.7231 |
| COc1ccccc1-c1cc(Nc2cccc(CS(N)(=O)=O)c2)ncn1 | U2OS | % | 39.1119 |
| CN(C)C(=O)Cn1cc(-c2ccc(-c3cncc4ccccc34)cc2)cn1 | U2OS | % | 36.3142 |
| CN1CCN(C(=O)C(C)(C)c2ccc(C(=O)Nc3cn4cc(-c5cc(C(C)(C)C)cc(C(C)(C)C)c5)ccc4n3)cc2)CC1 | U2OS | % | -11.2006 |
